Below, each entry is listed with its recorded logP.
assay-procedure: logP by HPLC on reversed-phase column (EEC Directive 79/831 Annex V.A8)
experimental-setup: HPLC, reversed-phase column (C 18), 40° C., 0.1% aqueous formic acid and acetonitrile, linear gradient 10% to 90% acetonitrile
measured-property: logP

>>> obs_value("Cn1nc(C(F)F)c(C(=O)N(Cc2ccccc2C(C)(C)C)C2CC2)c1F")
4.06
>>> obs_value("CC(C)Oc1ccc2c(c1)CCCC2N(C(=O)c1c(C(F)F)nn(C)c1F)C1CC1 (stereo not shown)")
4.11
>>> obs_value("Cn1nc(C(F)F)c(C(=O)N(Cc2cc(F)c(Br)cc2Br)C2CC2)c1F")
3.96
>>> obs_value("CCc1cccc(CC)c1CN(C(=O)c1c(C(F)F)nn(C)c1F)C1CC1")
4.01

All values here come from patent US8772266B2.
